B1: Hairpin Ribozyme (parent)
chain: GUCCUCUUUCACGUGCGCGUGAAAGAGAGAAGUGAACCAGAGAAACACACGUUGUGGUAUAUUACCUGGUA

# Variants of: B1
# Measurement Protocol: self-cleavage, relative activity (ratio to wild type); higher = more cleavage; co-transcriptional
Readout Label: self-cleavage
Give bare numbers.

# input Need self-cleavage, item `GUCCUCUUUCACGUGCGCGUGAAAGAGAGAAGCGAACCAGAGAAACACAGGUUGUGGUAUAUUACCUGGUA`
# output 0.0836

# input Need self-cleavage, item `GUCCUCUUUCACGUGCGCGUGAAAGAGAGAAGUGAAGCAGAGACACACACGUUGUGGUAUAUUACCUGGUA`
# output 0.16

# input Need self-cleavage, item `GUCCUCUUUCACGUGCGCGUGAAUGAGAGAAGUGAACCAGAGAAACACGCGUUGUGGUAUAUUACCUGGUA`
# output 0.533

Batch of 5 variants: report self-cleavage for each.
1. GUCCUCUCUCACGUGCGCGUGAAAGAGAGUAGUGAACCAGAGAAACACACGUUGUGGUAUAUUACCUGGUA
2. GUCCUCUUUCACGUGCGCGUGAAAGACAGAAGUGGACCAGAGAAACACACGUUGUGGUAUAUUACCUGGUA
3. GUCCUCUUUCACGUGCGCGUGAAAGAGAGAAGUGAACCAGAGAAGCACACGUUGUGGUAUAUUUCCUGGUA
4. GUCCUCUUUCGCGUUCGCGUGAAAGAGAGAAGUGAACCAGAGAAACACACGUUGUGGUAUAUUACCUGGUA
5. GUCCUCUUUCACGUGCCCGUGAAAGAGAAAAGUGAACCAGAGAAACACACGUUGUGGUAUAUUACCUGGUA

# output
[0.0797, 0.181, 0.176, 0.857, 0.12]

The measured values listed here are drawn from the RNAGym collection of RNA variant scans (doi:10.7554/elife.80360).
